B1: ZMYND11 (parent)
chain: YCSIKCQQEHWHAEHKRTCRRKR

- Variants of: B1
- Measurement Protocol: protein stability index of a GFP-peptide fusion (GPS, HEK-293T) (PSI 1-6); higher = more stable;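 note: lentivirally expressed fusions sorted by FACS into six bins by GFP to DsRed ratio, PSI derived from sequencing read proportions per bin multiplied by bin number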
- Stated Conditions: c terminus: native
Tick YES if protein stability index is 2 or greater. Tick NO if protein stability index is less than 2.

Past entries and their recorded results:
variant_label=H12E assigned_label=YES
variant_label=R17C assigned_label=YES
variant_label=H10Y assigned_label=NO
variant_label=S3G assigned_label=NO

[ask] Kindly determine if protein stability index recorded for "I4T" is above or exactly 2.
[reply] YES

[ask] Kindly determine if protein stability index recorded for "W11F" is above or exactly 2.
[reply] YES

[ask] Kindly determine if protein stability index recorded for "C19T" is above or exactly 2.
[reply] YES

[ask] Kindly determine if protein stability index recorded for "E9D" is above or exactly 2.
[reply] YES

[ask] Kindly determine if protein stability index recorded for "T18Q" is above or exactly 2.
[reply] YES

[ask] Kindly determine if protein stability index recorded for "I4D" is above or exactly 2.
[reply] YES

[ask] Kindly determine if protein stability index recorded for "Q8A" is above or exactly 2.
[reply] YES

[ask] Kindly determine if protein stability index recorded for "S3I" is above or exactly 2.
[reply] NO

[ask] Kindly determine if protein stability index recorded for "C6S" is above or exactly 2.
[reply] YES

[ask] Kindly determine if protein stability index recorded for "R23Y" is above or exactly 2.
[reply] NO
